The measurements presented in this section are drawn from ChEMBL document CHEMBL1133493.

Target: Neuropeptide Y receptor type 5 (Homo sapiens)
Sequence (Q15761 whole entry): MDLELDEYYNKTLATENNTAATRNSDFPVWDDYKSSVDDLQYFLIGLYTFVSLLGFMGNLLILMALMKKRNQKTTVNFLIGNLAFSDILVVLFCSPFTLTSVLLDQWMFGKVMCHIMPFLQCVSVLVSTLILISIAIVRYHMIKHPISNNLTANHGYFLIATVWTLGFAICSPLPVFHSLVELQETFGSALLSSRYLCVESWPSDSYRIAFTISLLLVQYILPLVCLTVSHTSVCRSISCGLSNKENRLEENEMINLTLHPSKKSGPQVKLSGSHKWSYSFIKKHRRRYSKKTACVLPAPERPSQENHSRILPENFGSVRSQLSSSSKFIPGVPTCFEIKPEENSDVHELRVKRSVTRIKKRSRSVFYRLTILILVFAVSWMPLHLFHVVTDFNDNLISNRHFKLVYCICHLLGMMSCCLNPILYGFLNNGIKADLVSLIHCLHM
Assay: Inhibition of binding of radioligand [125I]PYY to the human Neuropeptide Y receptor type 5, using a stably transfected HEK293 cell line
pIC50: −log10 of the molar value.
value type: pIC50

Worked cases, pIC50 given:
- compound: "CC(C)(C)OC(=O)N[C@H]1CCN(CC(=O)NC2CCc3cc(F)ccc3C2Cc2cccnc2)C1 (some centres undefined)"
  pIC50: 7.77
- compound: "O=C(Cc1ccccc1)NC[C@H]1CC[C@H](C(=O)NC2CCc3cc(F)ccc3C2Cc2cccnc2)CC1 (some centres undefined)"
  pIC50: 6.94

P: COc1ccc2c(c1)CCC(NC(=O)CN1CCC(n3c(=O)[nH]c4ccccc43)CC1)C2Cc1cccnc1 (centres undefined)
Q: O=C(CN1CCC(n2c(O)nc3ccccc32)CC1)NC1CCc2cc(F)ccc2C1Cc1cccnc1 (centres undefined)
### Prompt Between P and Q , whose measured pIC50 reads higher? Answer with the label corresponding to your selection.
### Response Q
(Q: 7.60, P: 7.12)
